# System: β-galactosidase in CMV-LacZ C2C12 myoblasts
# procedure-details: CMV-LacZ secondary screen in C2C12 myoblasts (β-Gal stabilizing assay)
# Format: cell-based, mouse
# reported-conditions: 0.5 uM; CMV-LacZ C2C12 myoblasts
# From the text: In order to determine compounds that acted to stabilize β-gal in myogenic cells, a CMV-LacZ C2C12 cell line was used in a secondary screen. The EGFP gene from the pEGFP (Clontech) vector was replaced by LACZ PCR product with digests of the vector/PCR product performed using EcoRI (NEB) and NotI (NEB) and ligated using T4 DNA Ligase (NEB) following standard procedures to produce the CMV-LACZ vector. […]
Measured CMV-LACZ in Myoblasts (β-galactosidase activity relative to DMSO), listed per entry.
Give the value as a plain number.

>>> experimental_value("Cc1nc(Nc2ccccc2F)c2oc3ccccc3c2n1")
1.0530
>>> experimental_value("COC(=O)c1cc(S(=O)(=O)NCC2CCN(Cc3ccc(Cl)cc3)CC2)cn1C")
0.9488
>>> experimental_value("CC(=O)Nc1ccc(NC(=O)C/C(C)=N/NC(=O)COc2cc(C)c(Br)cc2Br)cc1")
0.8680
>>> experimental_value("CC1CCN(C(CNS(=O)(=O)c2ccccc2)c2ccccc2)CC1 (centres unmarked)")
1.0498
>>> experimental_value("O=C(COc1ccc(Cl)cc1)N1CCN(C2CCCC2)CC1.O=C(O)C(=O)O")
0.8528
>>> experimental_value("Cc1noc(C)c1COc1ccc(C(=O)NCCc2ccccn2)cc1")
0.7117
>>> experimental_value("O=C1CCC(C(=O)N2CCSCC2)CN1Cc1ccc(Cl)cc1 (centres unmarked)")
0.9196
>>> experimental_value("N#Cc1ccc(Sc2nc3ccccc3[nH]2)cc1C#N")
0.8871

Data request: Query: CMV-LACZ in Myoblasts (β-galactosidase activity relative to DMSO); subject: COc1cc(/C=C/CN2CCN(Cc3ccc(C)o3)C(CCO)C2)ccc1O (centres unmarked)
Data returned: 0.8989

Data request: Query: CMV-LACZ in Myoblasts (β-galactosidase activity relative to DMSO); subject: CC1(C)Cc2ccccc2-c2nc3n(c(=O)c21)CCS3
Data returned: 1.0889

Data request: Query: CMV-LACZ in Myoblasts (β-galactosidase activity relative to DMSO); subject: CCOC(=O)C1=C(CC)Nc2ccccc2N=C1NC(=O)c1ccc(OC)c(S(=O)(=O)N2CCCCC2C)c1 (centres unmarked)
Data returned: 1.1220

Data request: Query: CMV-LACZ in Myoblasts (β-galactosidase activity relative to DMSO); subject: CC(C)(C)Nc1nc(-c2ccc3c(c2)CCN3C(=O)C2CC2)cs1
Data returned: 1.0991

Data request: Query: CMV-LACZ in Myoblasts (β-galactosidase activity relative to DMSO); subject: CC(=O)Nc1ccc(-n2c(C)nc(=O)c(-c3ccccc3)c2C)cc1
Data returned: 0.8167

Data request: Query: CMV-LACZ in Myoblasts (β-galactosidase activity relative to DMSO); subject: COc1ccc(CNC(=O)C2CCCN(S(=O)(=O)c3c(C)noc3/C=C/N(C)C)C2)cc1 (centres unmarked)
Data returned: 1.0703

Data request: Query: CMV-LACZ in Myoblasts (β-galactosidase activity relative to DMSO); subject: CC(C)c1ccc(NC(=O)CN2C(=O)c3ccccc3S2(=O)=O)cc1
Data returned: 1.0283

Data request: Query: CMV-LACZ in Myoblasts (β-galactosidase activity relative to DMSO); subject: COc1ccc(OC)c(NC(=O)CN2CCC(NC(=O)c3ccccc3C)CC2)c1
Data returned: 1.1409

Data request: Query: CMV-LACZ in Myoblasts (β-galactosidase activity relative to DMSO); subject: COc1cc([N+](=O)[O-])cc(/C=N/NC(=O)C(O)(c2ccccc2)c2ccccc2)c1O
Data returned: 1.1603

---

# System: β-galactosidase in CMV-LacZ C2C12 myotubes
# procedure-details: CMV-LacZ secondary screen in C2C12 myotubes (β-Gal stabilizing assay)
# Type: cell-based, mouse
# reported-conditions: 20 uM; C2C12 CMV-LacZ myotubes; fold relative to DMSO
Recorded CMV-LACZ in Myotubes, signal relative to DMSO determines the label; the label ranges are lower (below 0.9), middle (0.9 to below 1), upper (1 or more)

Solved cases below.
>>> cat("CCN(CC)C(=O)c1sc2nc(-c3ccc(OC)cc3)cn2c1C")
"upper"
>>> cat("Cc1nnc(SCC(=O)c2ccc(Br)cc2)s1")
"upper"
>>> cat("c1ccc(-c2cn3c4c(sc3n2)CCCC4)cc1")
"upper"
>>> cat("COc1ccc2oc(C[S+]([O-])c3ccccc3)c(C(=O)O)c2c1 (stereo not drawn)")
"middle"
>>> cat("CCOc1ccc(-n2c(C)c(C(=O)O)c3cc(OC)ccc32)cc1")
"upper"
>>> cat("Cc1ccc(NCc2nnc(SCC(=O)Nc3nnc(C)s3)n2C)cc1")
"upper"

Data request: State the band of COc1ccc(CCNC(=O)c2cc(-c3cc(C)ccc3O)n[nH]2)cc1OC
Data returned: middle

Data request: State the band of CC(C)(C)c1csc(NC(=O)c2cccnc2)n1
Data returned: upper

Data request: State the band of CCCCNC(=O)CSc1nnc(Cc2ccc(Cl)c(Cl)c2)c(=O)[nH]1
Data returned: lower

Data request: State the band of O=[N+]([O-])c1cccc(S(=O)(=O)N2CCN(S(=O)(=O)N3CCOCC3)CC2)c1
Data returned: middle

---

# Test system: β-galactosidase in CMV-LacZ C2C12 myotubes
# procedure-details: CMV-LacZ secondary screen in C2C12 myotubes (β-Gal stabilizing assay)
# Format: cell-based, mouse
# reported-conditions: 5 uM; SU9516 analogs, C2C12 CMV-LacZ, N=2
experimental-endpoint: CMV-LACZ in Myotubes, value relative to DMSO
Give the value as a plain number.

Recorded results for 8 compounds are shown here.
>>> experimental_value("Cc1ncc(/C=C2\\C(=O)Nc3ccccc32)[nH]1 [MLS000834757-01]")
1.0546
>>> experimental_value("O=Nc1c(-c2c(O)[nH]c3cc(Br)ccc23)[nH]c2ccccc12 [NCGC00094112-04]")
0.8123
>>> experimental_value("NC(=O)COc1ccc(C(=O)/C=C2/C(=O)Nc3ccccc32)cc1 [MLS001214300-01]")
1.0550
>>> experimental_value("O=C1Nc2ccccc2/C1=C/c1cccnc1 [MLS000682748-01]")
0.8790
>>> experimental_value("CN1CCN(c2ccccc2/C=C2/C(=O)Nc3ccccc32)CC1 [MLS001182377-01]")
0.9608
>>> experimental_value("Cc1ccc2c(c1)/C(=C/c1ccccc1F)C(=O)N2 [MLS001202330-01]")
0.9600
>>> experimental_value("CCOc1cc2c3c(c1)C(C)=CC(C)(C)N3C(=O)C2=O [MLS000710233-01]")
0.9060
>>> experimental_value("O=C1Nc2ccccc2/C1=C\\c1cccn1-c1ccc(OC(F)(F)F)cc1 [MLS000546982-01]")
1.0159

As a next step, examine the compound that follows.
Data request: Query: CMV-LACZ in Myotubes, value relative to DMSO; subject: COc1ccc2c(c1)/C(=C\c1cccc(/C=C3/C(=O)Nc4ccc(OC)cc43)n1)C(=O)N2 [MLS002702497-01]
Data returned: 7.0726

---

# Test system: β-galactosidase in CMV-LacZ C2C12 myotubes
# procedure-details: CMV-LacZ secondary screen in C2C12 myotubes (β-Gal stabilizing assay)
# Assay type: cell-based, mouse
# reported-conditions: 10 uM; CMV-LacZ C2C12 myotubes; 96-well format
# Text: In order to determine compounds that acted to stabilize β-gal in myogenic cells, a CMV-LacZ C2C12 cell line was used in a secondary screen. The EGFP gene from the pEGFP (Clontech) vector was replaced by LACZ PCR product with digests of the vector/PCR product performed using EcoRI (NEB) and NotI (NEB) and ligated using T4 DNA Ligase (NEB) following standard procedures to produce the CMV-LACZ vector. […]
Binary call on CMV-LACZ in Myotubes (β-galactosidase activity relative to DMSO): y from 1 upward, n beneath that.

Solved cases below.
>>> cat("COc1ccc(-n2c(SCC(=O)Nc3cccc(C(=O)O)c3)nnc2-c2ccco2)cc1 [MLS001215742-01]")
"y"
>>> cat("O=C(NCc1ccccc1)C(c1ccc(O)cc1)N(C(=O)Cn1nnc(-c2cccs2)n1)c1ccc2c(c1)OCCO2 (centres unmarked) [MLS000123454-01]")
"n"
>>> cat("CCCC(=O)Nc1ccccc1NC(=O)c1ccc(OCC)cc1 [MLS000685139-01]")
"y"
>>> cat("O=C(COC(=O)c1cc2ccccc2oc1=O)Nc1ccc(F)cc1F [MLS000516719-01]")
"y"
>>> cat("O=C(Nc1ccc(S(=O)(=O)Nc2nccs2)cc1)c1ccccc1OC(F)F [MLS002164687-01]")
"n"
>>> cat("CCOc1ccc(S(=O)(=O)NCCC(=O)NCC(c2cccs2)N2CCOCC2)cc1 (centres unmarked) [MLS001080869-01]")
"n"
>>> cat("NS(=O)(=O)c1ccc(NC(=O)c2cc(-c3ccccc3O)n[nH]2)cc1 [MLS001214443-01]")
"y"
>>> cat("O=S(=O)(NCC(c1ccco1)N1CCOCC1)c1ccc(Cl)cc1 (centres unmarked) [MLS000724709-01]")
"n"

Data request: Check the entry S=c1[nH]nc(Cn2cnc3ccccc32)n1-c1ccccc1 [MLS000707281-01] : does CMV-LACZ in Myotubes (β-galactosidase activity relative to DMSO) equal or exceed 1?
Data returned: n

Data request: Check the entry C[C@H](NS(=O)(=O)c1ccc(Cl)cc1)C(=O)OCC(=O)c1ccc[nH]1 [MLS000761297-01] : does CMV-LACZ in Myotubes (β-galactosidase activity relative to DMSO) equal or exceed 1?
Data returned: n

# credit: patent US9980943B2
